- Test system: ZFP Clone 7 (6-finger) (artificial)
- assay_comment: EMSA
- measurement_setup: probe flanks not given; 0.1 mM ZnCl2, 100 mM NaCl, on ice
parameter: Kd

Param readout= Kd; system= ZFP Clone 7 (6-finger) (artificial); entry= TACGTGGCATTGGGTGCTC (double strand) [Clone 7 target] ; returns value. < 3 pM

====

- Test system: ZFP Clone 6 (6-finger) (artificial)
- assay_comment: EMSA
- measurement_setup: probe flanks not given; 0.1 mM ZnCl2, 100 mM NaCl, on ice
parameter: Kd

Kd lookup needed for AGTAAGGTAGGAGATGATA (double strand) [Clone 6 target] , thanks. < 3 pM

====

- Test system: ZFP Clone 5 (BCTV L1 6-finger) (artificial)
- assay_comment: EMSA
- measurement_setup: 10 mM Tris-HCl pH 7.5, 100 mM NaCl, 1 mM MgCl2, 0.1 mM ZnCl2, 1 mg/ml BSA, 10% glycerol, poly(dA-dT)2, on ice
parameter: Kd

Kd lookup needed for TATATATATTGGGTGCTTTGGGTGCTCTATATATA (double strand) [L1 19-bp target probe] , thanks. < 3 pM
